// data source = PubChem BioAssay AID1996

conditions: buffer; pH 7.4; 200.0 µM
Overview of reported solubility kinetic across a group of compounds:

# example entries with known answers
Compound	Value
O=c1[nH]c(=S)[nH]c2nc(-c3cccs3)cc(C(F)(F)F)c12	4.8 µg/mL
CC(=O)N(Cc1cccs1)Cc1cc2cc(C)c(C)cc2nc1Cl	4.3 µg/mL
Nc1cc(=O)n(Cc2ccccc2)c(=O)n1-c1ccc(F)cc1	> 46.7 µg/mL
CN(C(=O)C1CCCCN1S(=O)(=O)c1ccccc1)c1ccccc1 (configuration not stated)	> 53.8 µg/mL
CCN(c1ccccc1)S(=O)(=O)c1ccc2c(c1)OCCO2	26.3 µg/mL
COc1cccc([C@@]2(O)CCCC[C@@H]2CN(C)C)c1	> 39.5 µg/mL

**Query** Record request: solubility kinetic value, item `O=C(NCc1cccs1)c1cnc(Cl)c(Cl)c1`
**Result** > 43.1 µg/mL

**Query** If you can, please state the reported solubility kinetic value of CC(C)[C@H](NC(=O)c1ccccc1)C(=O)OCC(=O)NCC1CCCO1 (some centres not stated) .
**Result** > 54.4 µg/mL

**Query** I am curious: what solubility kinetic value has been reported for `COc1ccc(OC)c(C(=O)c2ccccn2)c1` ?
**Result** > 36.5 µg/mL

**Query** Report solubility kinetic for `S=C(NCc1ccc(Cl)cc1)NCc1ccccn1` please.
**Result** 35.1 µg/mL

**Query** Look at this compound and give its reported solubility kinetic. `COC(=O)c1ccc(C(=O)OC)c(NC(=O)CSCC(=O)O)c1`
**Result** > 51.2 µg/mL

**Query** solubility kinetic for `CCCn1c2ccccc2c2cnn(CC(=O)N(CC)CC)c(=O)c21` ?
**Result** > 51.1 µg/mL

---

settings: buffer; pH 7.4; 200.0 µM
Measure name: solubility kinetic (mg/mL)
Respond numerically; units are mg/mL and should not be typed.

Molecule	Measure name	Reading unit	Value
COc1ccc(Nc2nc(OC)nc(N3CCOCC3)n2)cc1	solubility kinetic	mg/mL	0.0218

**Query** Dear colleague, I am looking for the recorded solubility kinetic of the following molecule: `COc1ccc2oc(C(=O)OCC(=O)Nc3ccc(C(=O)N(C)C)cc3)c(C)c2c1`
**Result** 0.0587

**Query** Name the recorded solubility kinetic for `COc1ccc(C(=O)Nc2ccc(CN3CCS(=O)(=O)CC3)cc2)cc1` .
**Result** 0.0013

**Query** Param item = `Nc1nc(Nc2ccccc2)nc(NCc2ccccc2)c1[N+](=O)[O-]` ; retrieve measured solubility kinetic.
**Result** 0.0002

**Query** Find the recorded solubility kinetic belonging to `CCOC(=O)c1c(NC(=O)NC(C)(C)C)sc2c1CCN(C)C2` and report it.
**Result** 0.0149

**Query** // lookup solubility kinetic for `O=C(Nc1ccccc1)N1CCN(C(=O)Nc2ccccc2)CC1`
**Result** 0.0031

**Query** Could you share which solubility kinetic value was measured for CC(Sc1ccc(S(=O)(=O)N2CCOCC2)cn1)c1ccccc1Cl (centres undefined) ?
**Result** 0.0059

---

conditions: buffer; pH 7.4; 200.0 µM
Measure name: solubility kinetic

Compound	Measure name	Value
O=C(Cn1ccccc1=S)c1ccc(Cl)c(Cl)c1	solubility kinetic	6.3 µg/mL
CCN(C(=O)COC(=O)c1ccc([N+](=O)[O-])o1)C1CCCCC1	solubility kinetic	> 48.6 µg/mL
Cc1ccccc1C(=O)Nc1ccc(S(=O)(=O)Nc2onc(C)c2C)cc1	solubility kinetic	50.5 µg/mL
COc1ccc(NC(=O)CCCOc2ccc(Cl)c(C)c2)cc1S(=O)(=O)N1CCOCC1	solubility kinetic	15.3 µg/mL
C[n+]1ccc(C(=O)NCc2ccccc2)cc1.[I-]	solubility kinetic	39.3 µg/mL

**Query** For the compound shown here, CCC(Oc1ccccc1C)C(=O)N1CCCN(C)CC1 (stereo unspecified) , give the reported solubility kinetic.
**Result** > 43.6 µg/mL

**Query** Could you tell me which solubility kinetic is on file for `COc1cccc(NC(=O)CN(C)CC(=O)Nc2ccc3c(c2)OCO3)c1` ?
**Result** > 55.7 µg/mL

**Query** Sample `Cc1cccc(OCc2ccc(C(=O)Nc3cc(C)on3)o2)c1` — what was its solubility kinetic?
**Result** < 0.3 µg/mL

**Query** solubility kinetic lookup needed for `O=C(CN1C(=O)c2ccc([N+](=O)[O-])cc2C1=O)NCc1ccco1` , thanks.
**Result** > 49.4 µg/mL

**Query** I have this compound here, `O=[N+]([O-])c1ccc(N2CCOCC2)cc1O` , and I need its recorded solubility kinetic.
**Result** > 33.6 µg/mL

**Query** Please report the recorded solubility kinetic for `Cc1ccc(NC(=O)CCC(=O)N2CCC(C)CC2)c([N+](=O)[O-])c1` .
**Result** > 50 µg/mL
